# procedure-details: Brain-to-blood drug concentration ratio of mice
# Type: in vivo
# applied-conditions: mouse, brain/plasma, 5 mg/kg PO, 8 h
Please go through the items and note down their Kp at 8 h.
Just the number, please, no unit attached.

Query: Report Kp at 8 h for CC(F)(F)C(=O)N[C@@H]1CCCC(F)(F)[C@H]1N1Cc2ccc(-c3nnc(C(F)F)o3)cc2S1(=O)=O [Compound 10] please.
Result: 0.29

Query: Tell me the measured Kp at 8 h of Cn1cc([C@@H]([C@H](O)c2ccccc2)N2Cc3ccc(-c4nnc(C(F)F)o4)cc3S2(=O)=O)cn1 [Compound 80] , please.
Result: 0.1

* * *

Please respond with reported AUC(0-inf) for every item in the list.
# procedure-details: Pharmacokinetic test in mice (IV and PO)
# Format: in vivo, BALB/c mice
# applied-conditions: BALB/c, mouse, plasma; mice, IV 1 mg/kg
Your answer should be a plain number; it is taken to be in µM·h.

Query: Recorded AUC(0-inf) of O=C(N[C@@H]1CCCC[C@H]1N1Cc2ccc(-c3nnc(C(F)F)o3)cc2S1(=O)=O)N1CCOCC1 , please.
Result: 1.71

Query: Need AUC(0-inf), item Cn1cc([C@@H]([C@H](O)c2ccccc2)N2Cc3ccc(-c4nnc(C(F)F)o4)cc3S2(=O)=O)cn1
Result: 5.28

Query: AUC(0-inf) lookup needed for O=C(N[C@@H]1COCC[C@H]1N1Cc2ccc(-c3nnc(C(F)F)o3)cc2S1(=O)=O)C(F)F , thanks.
Result: 4.53

Query: For the compound CC(F)(F)C(=O)N[C@@H]1CCCC(F)(F)[C@H]1N1Cc2ccc(-c3nnc(C(F)F)o3)cc2S1(=O)=O , what AUC(0-inf) is on record?
Result: 3.68

Query: Which value of AUC(0-inf) has been reported for CN(C)C(=O)N[C@@H]1CCCC[C@H]1N1Cc2ccc(-c3nnc(C(F)F)o3)cc2S1(=O)=O in the records?
Result: 1.08

Query: Param item = O=C(N[C@@H]1CCOC[C@H]1N1Cc2ccc(-c3nnc(C(F)F)o3)cc2S1(=O)=O)C(F)F ; retrieve measured AUC(0-inf).
Result: 4.27

Query: Please report the recorded AUC(0-inf) for O=S1(=O)c2cc(-c3nnc(C(F)F)o3)ccc2CN1[C@H](c1ccccn1)[C@H](O)c1ccc(F)cn1 .
Result: 1.77

* * *

# procedure-details: Brain-to-blood drug concentration ratio of mice
# Format: in vivo
# applied-conditions: mouse, plasma, 10 mg/kg PO, 1 h, read-out: Blood drug concentration
metric: concentration at 1 h (ng/mL)
Write the value in ng/mL as a bare number.

Query: I am curious: what concentration at 1 h value has been reported for O=C(N[C@@H]1CCCC[C@H]1N1Cc2ccc(-c3nnc(C(F)F)o3)cc2S1(=O)=O)C(F)F ?
Result: 4990

Query: What value of concentration at 1 h has been reported for the following molecule? CC(F)(F)C(=O)N[C@@H]1CCCC[C@H]1N1Cc2ccc(-c3nnc(C(F)F)o3)cc2S1(=O)=O
Result: 4270

* * *

# procedure-details: Phase I metabolic stability in human liver microsomes (HLMs)
# Assay type: in vitro ADME, humans
# applied-conditions: human, liver microsomes, pH 7.4; HLM
metric: half-life at 1 M (h)
Just the number in h, nothing appended.

Query: What measured half-life at 1 M goes with O=S1(=O)c2cc(-c3nnc(C(F)F)o3)ccc2CN1C(c1ccccn1)[C@H](O)c1ccccn1 (stereo partly shown) ?
Result: 4.51

Query: # input compound: O=C(N[C@H]1[C@H](N2Cc3ccc(-c4nnc(C(F)F)o4)cc3S2(=O)=O)CCCC1(F)F)C(F)F ; wanted: its half-life at 1 M
Result: 3.99
